Values compiled from paper PMC12603982.

- EXPERIMENTAL TARGET: T1, murine vasopressin V1b receptor (mV1bR) (murine, UniProt Q9WU02 1-421)
- T1 construct: vasopressin V1b receptor, murine; in membrane preparations; source: HEK293, transiently expressing; membrane preparations
- T1 sequence (looked up): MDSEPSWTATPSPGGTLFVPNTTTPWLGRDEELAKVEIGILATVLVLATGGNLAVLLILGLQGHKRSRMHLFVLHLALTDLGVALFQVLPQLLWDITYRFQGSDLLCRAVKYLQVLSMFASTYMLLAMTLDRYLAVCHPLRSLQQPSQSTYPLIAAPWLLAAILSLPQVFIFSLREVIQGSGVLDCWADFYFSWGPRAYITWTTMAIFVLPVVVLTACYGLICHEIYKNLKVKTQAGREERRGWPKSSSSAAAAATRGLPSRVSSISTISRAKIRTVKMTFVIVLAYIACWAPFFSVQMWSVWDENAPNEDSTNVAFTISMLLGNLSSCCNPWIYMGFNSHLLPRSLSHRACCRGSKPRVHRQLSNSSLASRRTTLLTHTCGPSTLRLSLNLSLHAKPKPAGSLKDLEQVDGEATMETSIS
- MEASUREMENT DESCRIPTION: radioligand binding; displacement of [3H]-OT or [3H]-VP from membrane preparations of HEK293 cells transiently expressing the murine receptor; dose-response curves in duplicates, at least three independent experiments; Ki >10 µM assigned where <25% of the radioligand was displaced at 10 µM
- STUDY CONDITIONS: one partner purified
Consider the following binders and their measured pKi readings.
Field pKi (float): negative decimal logarithm of the concentration in molar.

BINDER: CYFQNCPRG (vasopressin (arginine at position 8), endogenous nonapeptide; numbers count on: the mature nonapeptide) [Vasopressin (VP)]
MEASURED METRIC: pKi
MEASURED NUMBER: 9.40

Now examine the next entry.
For the binder CYIQNCPLG (oxytocin, endogenous nonapeptide ligand of OTR; numbers count on: the mature nonapeptide) [Oxytocin (OT)] , give its measured pKi value.
6.38
